Reference source for all entries: patent US9315499B2

Molecular target: HCMV polymerase (UL54) (Human cytomegalovirus (strain AD169) (HHV-5) (Human herpesvirus 5))
Assay: biochemical
Settings: LANCE TR-FRET, purified recombinant GST-UL54; read-out: Example C (IC50 nM)
I'd be grateful if you could share measured IC50 for these entries.
Write the figure, then the unit, nothing else.

// lookup IC50 for Nc1c(Br)cnc2c1cc(C(=O)NCc1ccc(Cl)cc1)c(=O)n2CC(=O)N1CCC(CO)C1 (centres unmarked) 83 nM

Can you look up the measured IC50 of O=C(NCc1ccc(Cl)cc1)c1cc2cccnc2n(CC(=O)N2CCC(C(=O)O)C2)c1=O (centres unmarked) for me? 6200 nM
